Observed IC50 for c-Cbl (Homo sapiens (Human)), reported per entry below.
Answers are plain numbers, in nM.

Completed entries (count: 5):
*Q* I would be grateful if you could share the reported IC50 for Cn1cnnc1[C@@H](OC1CC1)c1cccc(N2Cc3c(cc(CNC4(C)CCC4)cc3C(F)(F)F)C2=O)c1 (single isomer, unassigned) .
*A* 10000

*Q* Look up IC50: `Cn1cnnc1C1(c2cccc(N3Cc4c(cccc4C(F)(F)F)C3=O)c2)CC2(COC2)C1`
*A* 9700

*Q* Quick one: IC50 of `CO[C@H]1C[C@](c2cccc(N3Cc4c(cc(CN5CCCCCC5)cc4C(F)(F)F)C3=O)c2)(c2nncn2C)C1` ?
*A* 270

*Q* What does the data say about its IC50? Entry: `C[C@H](NC1(C)CCC1)c1cc2c(c(C(F)(F)F)c1)CN(c1cccc([C@H](c3nncn3C)C3COC3)c1)C2=O`
*A* 30

*Q* # IC50 lookup, item `Cn1cnnc1C1(c2cccc(N3Cc4c(cc(CNC5(C)CCC5)cc4C(F)(F)F)C3=O)c2)CN(CC(F)(F)F)C1`
*A* 9400

Give measured IC50 for every item shown.
1. Cn1cnnc1[C@@H](c1cccc(N2Cc3c(cc(CNC4(C)CCC4)cc3C(F)(F)F)C2=O)c1)[C@@H]1CCOC1
2. Cn1cnnc1[C@](O)(c1ccccc1)c1cccc(N2Cc3c(cc(CNC4(C)CCC4)cc3C(F)(F)F)C2=O)c1 (single isomer, unassigned)
3. Cn1cnnc1C1(c2cccc(N3Cc4c(cc(CNC5(C)CCC5)cc4C(F)(F)F)C3=O)c2)CCOCC1
4. CO[C@H]1C[C@](c2cc(C)cc(N3Cc4c(cc(CNC5(C)CCC5)cc4C(F)(F)F)C3=O)c2)(c2nncn2C)C1

*A*
[34, 20000, 2800, 290]

Dear colleague, could you send me IC50 for each of the items below? Thanks.
1. CCC(NCc1cc2c(c(C(F)(F)F)c1)CN(c1cccc([C@]3(c4nncn4C)C[C@H](OC)C3)c1)C2=O)C(=O)OC (stereo partly shown)
2. Cn1cnnc1[C@]1(c2cccc(N3Cc4c(cc(CNC5(C)CCC5)cc4C(F)(F)F)C3=O)c2)C[C@@H](CO)C1.O=CO
3. Cn1cnnc1[C@H](C[C@H]1COCCO1)c1cccc(N2Cc3c(cc(CNC4(C)CCC4)cc3C(F)(F)F)C2=O)c1
4. Cn1cnnc1[C@@H](C[C@@H]1COCCO1)c1cccc(N2Cc3c(cc(CNC4(C)CCC4)cc3C(F)(F)F)C2=O)c1
5. CO[C@H]1C[C@](c2cccc(N3Cc4c(cc(CNCC(C)C)cc4C(F)(F)F)C3=O)c2)(c2nncn2C)C1
6. CO[C@H]1C[C@](c2cccc(N3Cc4c(cc(CNC5CC(C(F)F)C5)cc4C(F)(F)F)C3=O)c2)(c2nncn2C)C1 (stereo partly shown)
7. CO[C@H]1C[C@](c2cc(NCCC#N)cc(N3Cc4c(cc(CNC5(C)CCC5)cc4C(F)(F)F)C3=O)c2)(c2nncn2C)C1
8. Cn1cnnc1C1(c2cccc(N3Cc4c(cc(CNC5(C)CCC5)cc4C(F)(F)F)C3=O)c2)CC2(CN(S(C)(=O)=O)C2)C1

*A*
[880, 86, 660, 16000, 17, 25, 61, 7500]

Need IC50 for each of these compounds.
1. Cn1cnnc1[C@H](c1cccc(N2Cc3c(cc([C@H](NC4(C)CCC4)C4CC4)cc3C(F)(F)F)C2=O)c1)C1COC1 (single isomer, unassigned)
2. CO[C@H]1C[C@](c2cc(NC3CCCC3)nc(N3Cc4c(cc(CNC5(C)CCC5)cc4C(F)(F)F)C3=O)c2)(c2nncn2C)C1
3. CCNc1cc([C@]2(c3nncn3C)C[C@@H](C)C2)cc(N2Cc3c(cc(CNC4(C)CCC4)cc3C(F)F)C2=O)n1
4. CO[C@H]1C[C@](c2cccc(N3Cc4c(cc(CN5CC(C)(O)C5)cc4C(F)(F)F)C3=O)c2)(c2nncn2C)C1
5. CO[C@H]1C[C@](c2cccc(N3Cc4c(cc([C@H](N)C(C)(C)C)cc4C(F)(F)F)C3=O)c2)(c2nncn2C)C1 (single isomer, unassigned)
6. CO[C@H]1C[C@](c2cccc(N3Cc4c(cc(CN[C@@H]5C[C@H]5C(C)(F)F)cc4C(F)(F)F)C3=O)c2)(c2nncn2C)C1 (single isomer, unassigned)

*A*
1: 2400; 2: 118; 3: 6.9; 4: 840; 5: 590; 6: 180

Hi! Can you tell me IC50 for each of these compounds?
1. CO[C@H]1C[C@](c2cccc(N3Cc4c(cc(CNC[C@@H]5[C@@H](C)C5(F)F)cc4C(F)(F)F)C3=O)c2)(c2nncn2C)C1
2. CO[C@H]1C[C@](c2cccc(N3Cc4c(cc(CN5CCC5)cc4C(F)(F)F)C3=O)c2)(c2nncn2C)C1

*A*
1: 26; 2: 280

----------
Observed log10 of IC50 for UniProt P22681, reported per entry below.
All values: base-10 log of IC50 in nM.

*Q* Find the recorded log10 of IC50 belonging to Cn1cnnc1[C@@H](OC1CCC1)c1cccc(N2Cc3c(cc(CNC4(C)CCC4)cc3C(F)(F)F)C2=O)c1 (single isomer, unassigned) [Compound 46] and report it.
*A* 4.30

*Q* I am curious: what log10 of IC50 value has been reported for Cn1cnnc1[C@H](c1cccc(N2Cc3c(cc(CNC4(C)CCC4)cc3C(F)(F)F)C2=O)c1)C1CC(OC(F)F)C1 (single isomer, unassigned) [Compound 390] ?
*A* 0.74

*Q* I have this compound here, CO[C@H]1C[C@@](c2cc(NC3CCCC3)nc(N3Cc4c(cc(CNC5(C)CCC5)cc4C(F)(F)F)C3=O)c2)(c2nncn2C)C1 [Compound 69] , and I need its recorded log10 of IC50.
*A* 1.73

Quick one: give me log10 of IC50 for each item below, same order please.
1. Cn1cnnc1[C@@H](c1cccc(N2Cc3c(cc(CNC4(C)CCC4)cc3C(F)(F)F)C2=O)c1)C1CC(OCC(F)F)C1 (stereo partly drawn) [Compound 260]
2. CCO[C@H]1C[C@](c2cccc(N3Cc4c(cc(CNC5(C)CCC5)cc4C(F)(F)F)C3=O)c2)(c2nncn2C)C1 [Compound 179]
3. Cn1cnnc1C1(c2cccc(N3Cc4c(cc(CNC5(C)CCC5)cc4C(F)(F)F)C3=O)c2)CSC1.O=CO [Compound 329, formate]
4. CO[C@]1(C)C[C@](c2cccc(N3Cc4c(cc(CNC5(C)CCC5)cc4C(F)(F)F)C3=O)c2)(c2nncn2C)C1 [Compound 29]

*A*
1: 3.38; 2: 2.04; 3: 1.28; 4: 2.22

For each of the compounds below, note its log10 of IC50.
1. Cn1cnnc1C(c1cccc(N2Cc3c(cc(CNC4(C)CCC4)cc3C(F)(F)F)C2=O)c1)C1CC(F)(F)C1 (racemic) [Compound 145]
2. C[C@H](NC1CCC1)c1cc2c(c(C(F)(F)F)c1)CN(c1cccc(C3(c4nncn4C)CC(F)(F)C3)c1)C2=O (single isomer, unassigned) [Compound 37]
3. Cn1cnnc1[C@H](c1ccccc1)c1cccc(N2Cc3c(Cl)cc(CNC4(C)CCC4)cc3C2=O)c1 (single isomer, unassigned) [Compound 158]

*A*
1: 2.26; 2: 1.00; 3: 3.70

For each of the compounds below, note its log10 of IC50.
1. CNc1cc(N2Cc3c(cc(CNC4(C)CCC4)cc3C(F)(F)F)C2=O)cc([C@]2(c3nncn3C)C[C@@H](OC)C2)c1 [Compound 238]
2. Cn1cnnc1C1(c2cccc(N3Cc4c(cc(CNC5(C)CCC5)cc4C(F)(F)F)C3=O)c2)CC2(CC(F)(F)C2)C1 [Compound 94]

*A*
1: 1.15; 2: 2.08

----------
assay.system: Human Cbl-b (residues 40-426) (Homo sapiens (Human))
Sequence (Q13191 40-426): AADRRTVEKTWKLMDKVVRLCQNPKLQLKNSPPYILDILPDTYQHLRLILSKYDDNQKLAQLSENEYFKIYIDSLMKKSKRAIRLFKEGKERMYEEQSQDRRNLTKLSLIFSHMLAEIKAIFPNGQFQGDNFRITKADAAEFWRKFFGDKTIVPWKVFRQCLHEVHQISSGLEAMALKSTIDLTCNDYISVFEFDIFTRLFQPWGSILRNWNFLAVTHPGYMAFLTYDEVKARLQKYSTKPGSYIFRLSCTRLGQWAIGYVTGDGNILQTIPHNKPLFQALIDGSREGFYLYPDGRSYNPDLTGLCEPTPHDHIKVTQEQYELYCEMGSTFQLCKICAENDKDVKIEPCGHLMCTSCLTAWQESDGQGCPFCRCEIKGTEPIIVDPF
method.description: Cbl-b SPR assay
Assay type: binding
settings: SPR, 20° C.
I'd be grateful if you could share measured Kd for these entries.
One number for each entry, in nM.

*Q* For Cn1cnnc1C1(c2cccc(N3Cc4c(cc(CNC5(C)CCC5)cc4C(F)(F)F)C3=O)c2)CCC1 [Compound 279] , what is its reported Kd?
*A* 1.8

*Q* State the recorded Kd for this entry: CCCNCc1cc2c(c(C(F)(F)F)c1)CN(c1cccc([C@]3(c4nncn4C)C[C@H](OC)C3)c1)C2=O [Compound 511]
*A* 5

*Q* // lookup Kd for CCNc1cc([C@]2(c3nncn3C)C[C@@H](C)C2)cc(N2Cc3c(cc(CNC4(C)CCC4)cc3C(F)F)C2=O)n1 [Compound 274]
*A* 0.1

*Q* I would be grateful if you could share the reported Kd for CO[C@H]1C[C@](c2cccc(N3Cc4c(cc(CN5CCCC5)cc4C(F)(F)F)C3=O)c2)(c2nncn2C)C1 [Compound 418] .
*A* 140

*Q* Give the measured Kd of Cn1cnnc1C1(c2cccc(N3Cc4c(cc(CNC5(C)CCC5)cc4C(F)(F)F)C3=O)c2)CCCC1 [Compound 292] .
*A* 5

*Q* Any idea what Kd was measured for Cn1cnnc1[C@H](c1cccc(N2Cc3c(Cl)cc(CNC4(C)CCC4)cc3C2=O)c1)[C@H]1C[C@H](F)C1 (single isomer, unassigned) [Compound 320] ?
*A* 0.4

*Q* Looking for the measured Kd of Cn1cnnc1[C@]1(c2cccc(N3Cc4c(cc(CNC5(C)CCC5)cc4C(F)(F)F)C3=O)c2)C[C@](C)(O)C1 [Compound 26] , can you help?
*A* 10

*Q* I'd like to know its Kd. The molecule in question is CO[C@](c1cccc(N2Cc3c(cc(CNC4(C)CCC4)cc3C(F)(F)F)C2=O)c1)(c1nncn1C)C1CCC1 (single isomer, unassigned) [Compound 119]
*A* 780

*Q* State the recorded Kd for this entry: CCNc1cc(N2Cc3c(cc(CNC4(C)CCC4)cc3C(F)(F)F)C2=O)cc([C@]2(c3nncn3C)C[C@@H](OC)C2)c1 [Compound 227]
*A* 1.7

*Q* Report Kd for Cn1cnnc1C1(c2cccc(N3Cc4c(cc(CNC5(C)CCC5)cc4C(F)(F)F)C3=O)c2)CC(=O)C1 [Compound 19] please.
*A* 40

// each molecule listed below needs its Kd
1. Cn1cnnc1[C@@H](c1cccc(N2Cc3c(cc(CNCC(C)(C)F)cc3C(F)(F)F)C2=O)c1)C1COC1 [Compound 463]
2. CO[C@H]1C[C@](c2cccc(N3Cc4c(cc(CNCC5CCC5)cc4C(F)(F)F)C3=O)c2)(c2nncn2C)C1 [Compound 416]
3. C[C@@H]1C[C@@](c2cccc(N3Cc4c(cc(CNC5(C)CCC5)cc4C(F)(F)F)C3=O)c2)(c2nncn2C)O1 [Compound 124]
4. Cn1cnnc1C(F)(c1cccc(N2Cc3c(cc(CNC4(C)CCC4)cc3C(F)(F)F)C2=O)c1)C1(F)COC1 (stereo in doubt) [Compound 404]
5. CC[C@@H](NC1(C)CCC1)c1cc2c(c(C(F)(F)F)c1)CN(c1cccc([C@H](c3nncn3C)C3COC3)c1)C2=O [Compound 314]

*A*
1: 3.2; 2: 0.87; 3: 17; 4: 0.85; 5: 5.1

// each molecule listed below needs its Kd
1. Cn1cnnc1C1(c2cc(NC3CCCC3)nc(N3Cc4c(cc(CNC5(C)CCC5)cc4C(F)(F)F)C3=O)c2)CC2(COC2)C1 [Compound 188]
2. CO[C@H]1C[C@@](c2cccc(N3Cc4c(cc([C@@H](C)NC5(C)CCC5)cc4C(F)(F)F)C3=O)c2)(c2nncn2C)C1 (single isomer, unassigned) [Compound 175]
3. CC(C)[C@](O)(c1cccc(N2Cc3c(cc(CNC4(C)CCC4)cc3C(F)(F)F)C2=O)c1)c1nncn1C [Compound 310]
4. CC(=O)N(C)[C@H](c1cccc(N2Cc3c(cc(CNC4(C)CCC4)cc3C(F)(F)F)C2=O)c1)c1nncn1C (single isomer, unassigned) [Compound 399]
5. CO[C@H]1C[C@@](c2cc(NC3CC3)cc(N3Cc4c(cc(CNC5(C)CCC5)cc4C(F)(F)F)C3=O)c2)(c2nncn2C)C1 [Compound 231]
6. CO[C@H]1C[C@](c2cccc(N3Cc4c(cccc4C(F)(F)F)C3=O)c2)(c2nncn2C)C1 [Compound 196]

*A*
4.7
0.95
30
490
1.5
1800
